molecular target: Macrophage colony-stimulating factor 1 receptor (Homo sapiens, UniProt P07333); assay: Displacement of kinase tracer 236 from recombinant human His-tagged CSF1R cytoplasmic domain (538 to 910 residues) expressed in baculovirus-infected insect cells measured after 5 hrs by TR-FRET based LanthaScreen assay
Sequence (P07333 whole entry, the tested form may be a part): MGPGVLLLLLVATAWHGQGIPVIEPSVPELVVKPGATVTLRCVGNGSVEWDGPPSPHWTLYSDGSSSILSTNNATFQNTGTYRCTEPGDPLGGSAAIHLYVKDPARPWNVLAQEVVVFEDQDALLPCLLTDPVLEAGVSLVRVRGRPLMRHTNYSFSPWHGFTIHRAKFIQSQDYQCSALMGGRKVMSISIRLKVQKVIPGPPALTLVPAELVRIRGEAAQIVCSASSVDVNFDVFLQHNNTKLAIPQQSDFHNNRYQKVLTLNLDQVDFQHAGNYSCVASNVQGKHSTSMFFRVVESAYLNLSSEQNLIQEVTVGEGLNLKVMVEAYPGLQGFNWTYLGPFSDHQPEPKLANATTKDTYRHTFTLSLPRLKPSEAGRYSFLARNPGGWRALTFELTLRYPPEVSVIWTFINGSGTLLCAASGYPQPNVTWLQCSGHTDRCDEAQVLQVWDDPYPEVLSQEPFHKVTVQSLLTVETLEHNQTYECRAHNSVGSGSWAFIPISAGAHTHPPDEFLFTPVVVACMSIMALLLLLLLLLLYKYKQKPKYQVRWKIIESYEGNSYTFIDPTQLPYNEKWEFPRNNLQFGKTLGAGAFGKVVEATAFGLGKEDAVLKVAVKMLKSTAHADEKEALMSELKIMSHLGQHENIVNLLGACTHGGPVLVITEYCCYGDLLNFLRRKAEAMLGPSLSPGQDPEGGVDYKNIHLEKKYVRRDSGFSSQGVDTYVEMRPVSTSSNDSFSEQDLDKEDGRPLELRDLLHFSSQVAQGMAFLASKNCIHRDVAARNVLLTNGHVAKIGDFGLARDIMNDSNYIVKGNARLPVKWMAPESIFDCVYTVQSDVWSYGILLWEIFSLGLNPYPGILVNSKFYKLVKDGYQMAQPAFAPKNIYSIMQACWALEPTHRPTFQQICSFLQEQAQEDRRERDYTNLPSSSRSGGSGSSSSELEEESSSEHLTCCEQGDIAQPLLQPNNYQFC
Each record here notes measured IC50.

Observe how each entry below is paired with its result.
- molecule: "CC(C)c1ccn(CC(=O)Nc2ccc(-n3c4c(c5ncnc(N)c53)CCC4)cc2)n1"
  IC50: "< 10 nM"
- molecule: "CC(C)c1cn(C)c2ccc(CC(=O)Nc3ccc(-n4c5c(c6ncnc(N)c64)CCC5)cc3)cc12"
  IC50: "10 to 200 nM"
- molecule: "COc1cc(-n2c3c(c4ncnc(N)c42)CCC3)ccc1NC(=O)Cn1cc(C)cn1"
  IC50: "< 10 nM"

Measured IC50 of `Nc1ncnc2c3c(n(-c4ccc(NC(=O)Cc5cccnc5)cc4)c12)CCC3` : 10 to 200 nM

Measured IC50 of CC(C(=O)Nc1ccc(-n2c3c(c4ncnc(N)c42)CCC3)cc1)c1ccccc1 (stereo not given) : 10 to 200 nM
